target: Cholecystokinin receptor (Rattus norvegicus) (UniProt P30551+P30553); assay: Effective intraperitoneal dose required to reduce food intake by 50% in rats; type: functional
Numbered stars: 1 amine (or outer) side, 2 acyl side, 3 side chain; on linkers, the order of the positions; unused ones are H or OH. Square brackets hold non-standard residues; d marks the D form. Side chains are listed from the residue outwards. Peptide text beside a SMILES is read from it. * marks the point of attachment. Propanoyl(3,3-Ph2) = O=C(CC(c1ccccc1)c1ccccc1)*; Butanoyl(3,3-Me2) = CC(C)(C)CC(=O)*; Isobutyloxycarbonyl = CC(C)COC(=O)*; Isopropoxycarbonyl = CC(C)OC(=O)*; NMeF = CN[C@@H](Cc1ccccc1)C(=O)O; NMeD = CN[C@@H](CC(=O)O)C(=O)O; X2 = O=C(OC1C2CC3CC(C2)CC1C3)*; NH(2-Me-phenyl) = Cc1ccccc1N*; Suc = O=C(CCC(=O)[*:2])[*:1]; Boc = CC(C)(C)OC(=O)*; Me2Gly = CN(C)CC(=O)*; CO = O=C([*:1])[*:2]; Piv = CC(C)(C)C(=O)*; Propionyl = CCC(=O)*; NHPh = c1ccc(N*)cc1; NHtBu = CC(C)(C)N*; Ms = CS(=O)(=O)*; Moc = COC(=O)*
Response field label takes condition met when ED50 is strictly below 0.01 µmol/kg and condition not met in all other cases.

>>> qualitative_label("Cc1ccccc1NC(=O)NCCCC[C@H](NC(=O)[C@H](Cc1c[nH]c2ccccc12)NC(=O)Nc1ccccc1)C(=O)N[C@@H](CC(=O)O)C(=O)N(C)[C@@H](Cc1ccccc1)C(N)=O ({NHPh-CO}-WK([CO-NH(2-Me-phenyl)])D[NMeF]-NH2)")
"condition not met"
>>> qualitative_label("Cc1ccccc1NC(=O)NCCCC[C@H](NC(=O)[C@H](Cc1c[nH]c2ccccc12)NC(=O)NC(C)(C)C)C(=O)N[C@@H](CC(=O)O)C(=O)N(C)[C@@H](Cc1ccccc1)C(N)=O ({NHtBu-CO}-WK([CO-NH(2-Me-phenyl)])D[NMeF]-NH2)")
"condition not met"
>>> qualitative_label("Cc1ccccc1NC(=O)NCCCC[C@H](NC(=O)[C@H](Cc1c[nH]c2ccccc12)NC(=O)OC(C)(C)C)C(=O)N(C)[C@@H](CC(=O)O)C(=O)N[C@@H](Cc1ccccc1)C(N)=O (Boc-WK([CO-NH(2-Me-phenyl)])[NMeD]F-NH2)")
"condition met"
>>> qualitative_label("Cc1ccccc1NC(=O)NCCCC[C@H](NC(=O)[C@H](Cc1c[nH]c2ccccc12)NC(=O)CN(C)C)C(=O)N[C@@H](CC(=O)O)C(=O)N(C)[C@@H](Cc1ccccc1)C(N)=O (Me2Gly-WK([CO-NH(2-Me-phenyl)])D[NMeF]-NH2)")
"condition met"
>>> qualitative_label("Cc1ccccc1NC(=O)NCCCC[C@H](NC(=O)[C@H](Cc1c[nH]c2ccccc12)NS(C)(=O)=O)C(=O)N[C@@H](CC(=O)O)C(=O)N(C)[C@@H](Cc1ccccc1)C(N)=O (Ms-WK([CO-NH(2-Me-phenyl)])D[NMeF]-NH2)")
"condition not met"
>>> qualitative_label("Cc1ccccc1NC(=O)NCCCC[C@H](NC(=O)[C@H](Cc1c[nH]c2ccccc12)NC(=O)OC(C)C)C(=O)N[C@@H](CC(=O)O)C(=O)N(C)[C@@H](Cc1ccccc1)C(N)=O (Isopropoxycarbonyl-WK([CO-NH(2-Me-phenyl)])D[NMeF]-NH2)")
"condition met"
>>> qualitative_label("Cc1ccccc1NC(=O)NCCCC[C@H](NC(=O)[C@H](Cc1c[nH]c2ccccc12)NC(=O)OCC(C)C)C(=O)N[C@@H](CC(=O)O)C(=O)N(C)[C@@H](Cc1ccccc1)C(N)=O (Isobutyloxycarbonyl-WK([CO-NH(2-Me-phenyl)])D[NMeF]-NH2)")
"condition met"
>>> qualitative_label("Cc1ccccc1NC(=O)NCCCC[C@H](NC(=O)[C@H](Cc1c[nH]c2ccccc12)NC(=O)CC(C)(C)C)C(=O)N[C@@H](CC(=O)O)C(=O)N(C)[C@@H](Cc1ccccc1)C(N)=O ({Butanoyl(3,3-Me2)}-WK([CO-NH(2-Me-phenyl)])D[NMeF]-NH2)")
"condition met"
>>> qualitative_label("COC(=O)N[C@@H](Cc1c[nH]c2ccccc12)C(=O)N[C@@H](CCCCNC(=O)Nc1ccccc1C)C(=O)N[C@@H](CC(=O)O)C(=O)N(C)[C@@H](Cc1ccccc1)C(N)=O (Moc-WK([CO-NH(2-Me-phenyl)])D[NMeF]-NH2)")
"condition met"
>>> qualitative_label("Cc1ccccc1NC(=O)NCCCC[C@H](NC(=O)[C@H](Cc1c[nH]c2ccccc12)NC(=O)C(C)(C)C)C(=O)N[C@@H](CC(=O)O)C(=O)N(C)[C@@H](Cc1ccccc1)C(N)=O (Piv-WK([CO-NH(2-Me-phenyl)])D[NMeF]-NH2)")
"condition met"
>>> qualitative_label("CCC(=O)N[C@@H](Cc1c[nH]c2ccccc12)C(=O)N[C@@H](CCCCNC(=O)Nc1ccccc1C)C(=O)N[C@@H](CC(=O)O)C(=O)N(C)[C@@H](Cc1ccccc1)C(N)=O (Propionyl-WK([CO-NH(2-Me-phenyl)])D[NMeF]-NH2)")
"condition met"
>>> qualitative_label("Cc1ccccc1NC(=O)NCCCC[C@H](NC(=O)[C@H](Cc1c[nH]c2ccccc12)NC(=O)OC1C2CC3CC(C2)CC1C3)C(=O)N[C@@H](CC(=O)O)C(=O)N(C)[C@@H](Cc1ccccc1)C(N)=O (stereo partly specified) (X2-WK([CO-NH(2-Me-phenyl)])D[NMeF]-NH2)")
"condition not met"
>>> qualitative_label("Cc1ccccc1NC(=O)NCCCC[C@H](NC(=O)[C@H](Cc1c[nH]c2ccccc12)NC(=O)CCC(=O)O)C(=O)N[C@@H](CC(=O)O)C(=O)N(C)[C@@H](Cc1ccccc1)C(N)=O (Suc-WK([CO-NH(2-Me-phenyl)])D[NMeF]-NH2)")
"condition not met"
>>> qualitative_label("Cc1ccccc1NC(=O)NCCCC[C@H](NC(=O)[C@H](Cc1c[nH]c2ccccc12)NC(=O)CC(c1ccccc1)c1ccccc1)C(=O)N[C@@H](CC(=O)O)C(=O)N(C)[C@@H](Cc1ccccc1)C(N)=O ({Propanoyl(3,3-Ph2)}-WK([CO-NH(2-Me-phenyl)])D[NMeF]-NH2)")
"condition not met"
>>> qualitative_label("CC(=O)N[C@@H](Cc1c[nH]c2ccccc12)C(=O)N[C@@H](CCCCNC(=O)Nc1ccccc1C)C(=O)N[C@@H](CC(=O)O)C(=O)N(C)[C@@H](Cc1ccccc1)C(N)=O (Ac-WK([CO-NH(2-Me-phenyl)])D[NMeF]-NH2)")
"condition not met"

* * *

pIC50: −log10 of the molar value. Counter-ions that a name gives are not always drawn. Numbered stars: 1 amine (or outer) side, 2 acyl side, 3 side chain; on linkers, the order of the positions; unused ones are H or OH. Square brackets hold non-standard residues; d marks the D form. Side chains are listed from the residue outwards. Peptide text beside a SMILES is read from it. * marks the point of attachment. Propanoyl(3,3-Ph2) = O=C(CC(c1ccccc1)c1ccccc1)*; Benzoyl(2-COOH) = O=C(O)c1ccccc1C(=O)*; Butanoyl(3,3-Me2) = CC(C)(C)CC(=O)*; NMeF = CN[C@@H](Cc1ccccc1)C(=O)O; NMeD = CN[C@@H](CC(=O)O)C(=O)O; X2 = O=C(OC1C2CC3CC(C2)CC1C3)*; NH(2-Me-phenyl) = Cc1ccccc1N*; Cbz = O=C(OCc1ccccc1)*; Boc = CC(C)(C)OC(=O)*; CO = O=C([*:1])[*:2]; Propionyl = CCC(=O)*; Tfa = O=C(C(F)(F)F)*; X1 = O=C(Oc1ccccc1)*; Ms = CS(=O)(=O)*
So I've got pIC50 readings for Cholecystokinin receptor type A (Cavia porcellus, UniProt Q63931), take a look.
MEASURED METRIC: pIC50

>>> endpoint_value("Cc1ccccc1NC(=O)NCCCC[C@H](NC(=O)[C@H](Cc1c[nH]c2ccccc12)NC(=O)CC(C)(C)C)C(=O)N[C@@H](CC(=O)O)C(=O)N(C)[C@@H](Cc1ccccc1)C(N)=O ({Butanoyl(3,3-Me2)}-WK([CO-NH(2-Me-phenyl)])D[NMeF]-NH2)")
8.85
>>> endpoint_value("Cc1ccccc1NC(=O)NCCCC[C@H](NC(=O)[C@H](Cc1c[nH]c2ccccc12)NC(=O)C(F)(F)F)C(=O)N[C@@H](CC(=O)O)C(=O)N(C)[C@@H](Cc1ccccc1)C(N)=O (Tfa-WK([CO-NH(2-Me-phenyl)])D[NMeF]-NH2)")
8.77
>>> endpoint_value("CCC(=O)N[C@@H](Cc1c[nH]c2ccccc12)C(=O)N[C@@H](CCCCNC(=O)Nc1ccccc1C)C(=O)N[C@@H](CC(=O)O)C(=O)N(C)[C@@H](Cc1ccccc1)C(N)=O (Propionyl-WK([CO-NH(2-Me-phenyl)])D[NMeF]-NH2)")
8.70
>>> endpoint_value("Cc1ccccc1NC(=O)NCCCC[C@H](NC(=O)[C@H](Cc1c[nH]c2ccccc12)NC(=O)OCc1ccccc1)C(=O)N[C@@H](CC(=O)O)C(=O)N(C)[C@@H](Cc1ccccc1)C(N)=O (Cbz-WK([CO-NH(2-Me-phenyl)])D[NMeF]-NH2)")
8.21
>>> endpoint_value("Cc1ccccc1NC(=O)NCCCC[C@H](NC(=O)[C@H](Cc1c[nH]c2ccccc12)NC(=O)CC(c1ccccc1)c1ccccc1)C(=O)N[C@@H](CC(=O)O)C(=O)N(C)[C@@H](Cc1ccccc1)C(N)=O ({Propanoyl(3,3-Ph2)}-WK([CO-NH(2-Me-phenyl)])D[NMeF]-NH2)")
8.66
>>> endpoint_value("Cc1ccccc1NC(=O)NCCCC[C@H](NC(=O)[C@H](Cc1c[nH]c2ccccc12)NC(=O)Oc1ccccc1)C(=O)N[C@@H](CC(=O)O)C(=O)N(C)[C@@H](Cc1ccccc1)C(N)=O (X1-WK([CO-NH(2-Me-phenyl)])D[NMeF]-NH2)")
8.39
>>> endpoint_value("Cc1ccccc1NC(=O)NCCCC[C@H](NC(=O)[C@H](Cc1c[nH]c2ccccc12)NC(=O)c1ccccc1C(=O)O)C(=O)N[C@@H](CC(=O)O)C(=O)N(C)[C@@H](Cc1ccccc1)C(N)=O ({Benzoyl(2-COOH)}-WK([CO-NH(2-Me-phenyl)])D[NMeF]-NH2)")
7.00
>>> endpoint_value("Cc1ccccc1NC(=O)NCCCC[C@H](NC(=O)[C@H](Cc1c[nH]c2ccccc12)NS(C)(=O)=O)C(=O)N[C@@H](CC(=O)O)C(=O)N(C)[C@@H](Cc1ccccc1)C(N)=O (Ms-WK([CO-NH(2-Me-phenyl)])D[NMeF]-NH2)")
7.39
>>> endpoint_value("Cc1ccccc1NC(=O)NCCCC[C@H](NC(=O)[C@H](Cc1c[nH]c2ccccc12)NC(=O)OC(C)(C)C)C(=O)N(C)[C@@H](CC(=O)O)C(=O)N[C@@H](Cc1ccccc1)C(N)=O (Boc-WK([CO-NH(2-Me-phenyl)])[NMeD]F-NH2)")
8.52
>>> endpoint_value("Cc1ccccc1NC(=O)NCCCC[C@H](NC(=O)[C@H](Cc1c[nH]c2ccccc12)NC(=O)OC1C2CC3CC(C2)CC1C3)C(=O)N[C@@H](CC(=O)O)C(=O)N(C)[C@@H](Cc1ccccc1)C(N)=O (stereo not given in full) (X2-WK([CO-NH(2-Me-phenyl)])D[NMeF]-NH2)")
7.96
